Ref: patent US4990508A

We begin with a simple list: items and their reported MIC.
# Tested on: S. marcescens W-134
# protocol-description: MIC, agar dilution, standard method of Japan Society of Chemotherapy
# Format: cell-based
# settings: Serratia marcescens, W134, Heart Infusion agar, 37° C., 20 hours, 10^4 cells/plate (10^6 cells/ml)
Structures can show the parent of a compound that is named as a salt.
observed-property: MIC

INSERT INTO measurements (compound, observed_property, observed) VALUES
  ('CC1COc2c(C3(N)CC3)c(F)c(O)c3c(=O)c(C(=O)O)cn1c23.Cl (stereo not shown)', 'MIC', '0.2 µg/mL'),
  ('NC1(c2c(F)cc3c(=O)c(C(=O)O)cn4c3c2OCC42CC2)CC1 [Test Compound 9, hydrochloride]', 'MIC', '0.2 µg/mL'),
  ('CC1COc2c(N3CCN(C)CC3)c(F)cc3c(=O)c(C(=O)O)cn1c23 (racemic) [Control compd., reference compound]', 'MIC', '0.2 µg/mL'),
  ('CC1CC1(N)c1c(F)cc2c(=O)c(C(=O)O)cn3c2c1OC[C@@H]3C.Cl (stereo partly shown)', 'MIC', '0.1 µg/mL');

* * *

MIC by entry:
# Tested on: E. coli TK-111
# protocol-description: MIC, agar dilution, standard method of Japan Society of Chemotherapy
# Format: cell-based
# settings: Escherichia coli, TK111, Heart Infusion agar, 37° C., 20 hours, 10^4 cells/plate (10^6 cells/ml)
# Method: According to the standard method of Japan Society of Chemotherapy [CHEMOTHERAPY, 29 (1), 76-79 (1981)], a bacteria solution obtained by culturing in Heart Infusion broth (manufactured by Eiken Kagaku) at 37° C. for 20 hours was inoculated onto a Heart Infusion agar containing a drug and cultured at 37° C. for 20 hours, after which the growth of the bacteria was observed, to determine the minimum concentration at which the growth of the bacteria was inhibited as MIC (μg/ml). […]
Counter-ions that a name gives are not always drawn.
observed-property: MIC

INSERT INTO measurements (compound, observed_property, observed) VALUES
  ('C[C@H]1COc2c(C3(N)CC3)c(F)cc3c(=O)c(C(=O)O)cn1c23.Cl', 'MIC', '≤ 0.05 µg/mL'),
  ('CC1CC1(N)c1c(F)cc2c(=O)c(C(=O)O)cn3c2c1OC[C@@H]3C.Cl (some centres unmarked)', 'MIC', '≤ 0.05 µg/mL'),
  ('CC1COc2c(C3(N)CC3)c(F)cc3c(=O)c(C(=O)O)cn1c23.Cl (centres unmarked)', 'MIC', '≤ 0.05 µg/mL'),
  ('CC1COc2c(C3(N)CC3)c(F)c(N)c3c(=O)c(C(=O)O)cn1c23.Cl (centres unmarked)', 'MIC', '≤ 0.05 µg/mL'),
  ('CC1COc2c(N3CCN(C)CC3)c(F)cc3c(=O)c(C(=O)O)cn1c23 (racemic) [Control compd., reference compound]', 'MIC', '≤ 0.05 µg/mL'),
  ('NC1(c2c(F)cc3c(=O)c(C(=O)O)cn4c3c2OCC42CC2)CC1 [Test Compound 9, hydrochloride]', 'MIC', '≤ 0.05 µg/mL'),
  ('CC1COc2c(C3(N)CC3)c(F)c(F)c3c(=O)c(C(=O)O)cn1c23.Cl (centres unmarked)', 'MIC', '≤ 0.05 µg/mL'),
  ('CNC1(c2c(F)cc3c(=O)c(C(=O)O)cn4c3c2OC[C@@H]4C)CC1.Cl', 'MIC', '≤ 0.05 µg/mL');

* * *

# System: E. coli TK-111
# protocol-description: MIC, agar dilution, standard method of Japan Society of Chemotherapy
# Assay type: cell-based
# settings: Escherichia coli, TK111, Heart Infusion agar, 37° C., 20 hours, 10^4 cells/plate (10^6 cells/ml)
observed-property: MIC

INSERT INTO results (compound, target_of_assay, observed_property, observed) VALUES
  ('CC[C@H]1COc2c(C3(N)CC3)c(F)cc3c(=O)c(C(=O)O)cn1c23.Cl', 'E. coli TK-111', 'MIC', '≤ 0.05 µg/mL'),
  ('Cl.NC1(c2c(F)cc3c(=O)c(C(=O)O)cn4c3c2OCC4CF)CC1 (stereo not shown)', 'E. coli TK-111', 'MIC', '≤ 0.05 µg/mL'),
  ('CC1COc2c(C3(N)CC3)c(F)c(O)c3c(=O)c(C(=O)O)cn1c23.Cl (stereo not shown)', 'E. coli TK-111', 'MIC', '≤ 0.05 µg/mL'),
  ('Br.C=C1COc2c(C3(N)CC3)c(F)cc3c(=O)c(C(=O)O)cn1c23', 'E. coli TK-111', 'MIC', '≤ 0.05 µg/mL');

* * *

MIC values, listed per item
# Tested on: E. coli NIHJ
# protocol-description: MIC, agar dilution, standard method of Japan Society of Chemotherapy
# Format: cell-based
# settings: Escherichia coli, Heart Infusion agar, 37° C., 20 hours, 10^4 cells/plate (10^6 cells/ml)
Where a name gives a salt, the structure may show the parent alone.
observed-property: MIC

INSERT INTO assay_data (compound, observed_property, observed) VALUES
  ('CC1COc2c(N3CCN(C)CC3)c(F)cc3c(=O)c(C(=O)O)cn1c23 (racemic) [Control compd., reference compound]', 'MIC', '≤ 0.05 µg/mL'),
  ('CC1COc2c(C3(N)CC3)c(F)c(F)c3c(=O)c(C(=O)O)cn1c23.Cl (stereo not drawn)', 'MIC', '≤ 0.05 µg/mL'),
  ('NC1(c2c(F)cc3c(=O)c(C(=O)O)cn4c3c2OCC42CC2)CC1 [Test Compound 9, hydrochloride]', 'MIC', '0.1 µg/mL'),
  ('C[C@H]1COc2c(C3(N)CC3)c(F)cc3c(=O)c(C(=O)O)cn1c23.Cl', 'MIC', '≤ 0.05 µg/mL'),
  ('CC1COc2c(C3(N)CC3)c(F)c(O)c3c(=O)c(C(=O)O)cn1c23.Cl (stereo not drawn)', 'MIC', '≤ 0.05 µg/mL'),
  ('CC1CC1(N)c1c(F)cc2c(=O)c(C(=O)O)cn3c2c1OC[C@@H]3C.Cl (stereo partly drawn)', 'MIC', '≤ 0.05 µg/mL'),
  ('CC1COc2c(C3(N)CC3)c(F)cc3c(=O)c(C(=O)O)cn1c23.Cl (stereo not drawn)', 'MIC', '≤ 0.05 µg/mL'),
  ('CNC1(c2c(F)cc3c(=O)c(C(=O)O)cn4c3c2OC[C@@H]4C)CC1.Cl', 'MIC', '≤ 0.05 µg/mL'),
  ('Br.C=C1COc2c(C3(N)CC3)c(F)cc3c(=O)c(C(=O)O)cn1c23', 'MIC', '0.1 µg/mL'),
  ('CC[C@H]1COc2c(C3(N)CC3)c(F)cc3c(=O)c(C(=O)O)cn1c23.Cl', 'MIC', '≤ 0.05 µg/mL'),
  ('CC1COc2c(C3(N)CC3)c(F)c(N)c3c(=O)c(C(=O)O)cn1c23.Cl (stereo not drawn)', 'MIC', '≤ 0.05 µg/mL'),
  ('Cl.NC1(c2c(F)cc3c(=O)c(C(=O)O)cn4c3c2OCC4CF)CC1 (stereo not drawn)', 'MIC', '≤ 0.05 µg/mL');
